target: Phosphatidylinositol 4,5-bisphosphate 3-kinase catalytic subunit beta isoform (Homo sapiens); test: biochemical
MEASUREMENT LABEL: Ki (nM)

COc1ccc(Nc2ncc(C3=CCOCC3)cc2-c2nc(C)nc(N)n2)cn1; 3

[1] COc1ccc(Nc2ncc(N3CCOCC3)cc2-c2nc(C)nc(N)n2)cn1
[2] COc1ccc(Nc2ncc(CN3CCS(=O)(=O)CC3)cc2-c2nc(C)nc(N)n2)cn1
[3] COc1ccc(Nc2ncc(C)cc2-c2nc(C)nc(N)n2)cn1
[in] List items by Ki in falling order. Give me the labels in the order the question wants.
[out] 3, 2, 1

---

Molecular target: Phosphatidylinositol 4,5-bisphosphate 3-kinase catalytic subunit delta isoform (Homo sapiens, UniProt O00329)
Sequence (O00329 whole entry): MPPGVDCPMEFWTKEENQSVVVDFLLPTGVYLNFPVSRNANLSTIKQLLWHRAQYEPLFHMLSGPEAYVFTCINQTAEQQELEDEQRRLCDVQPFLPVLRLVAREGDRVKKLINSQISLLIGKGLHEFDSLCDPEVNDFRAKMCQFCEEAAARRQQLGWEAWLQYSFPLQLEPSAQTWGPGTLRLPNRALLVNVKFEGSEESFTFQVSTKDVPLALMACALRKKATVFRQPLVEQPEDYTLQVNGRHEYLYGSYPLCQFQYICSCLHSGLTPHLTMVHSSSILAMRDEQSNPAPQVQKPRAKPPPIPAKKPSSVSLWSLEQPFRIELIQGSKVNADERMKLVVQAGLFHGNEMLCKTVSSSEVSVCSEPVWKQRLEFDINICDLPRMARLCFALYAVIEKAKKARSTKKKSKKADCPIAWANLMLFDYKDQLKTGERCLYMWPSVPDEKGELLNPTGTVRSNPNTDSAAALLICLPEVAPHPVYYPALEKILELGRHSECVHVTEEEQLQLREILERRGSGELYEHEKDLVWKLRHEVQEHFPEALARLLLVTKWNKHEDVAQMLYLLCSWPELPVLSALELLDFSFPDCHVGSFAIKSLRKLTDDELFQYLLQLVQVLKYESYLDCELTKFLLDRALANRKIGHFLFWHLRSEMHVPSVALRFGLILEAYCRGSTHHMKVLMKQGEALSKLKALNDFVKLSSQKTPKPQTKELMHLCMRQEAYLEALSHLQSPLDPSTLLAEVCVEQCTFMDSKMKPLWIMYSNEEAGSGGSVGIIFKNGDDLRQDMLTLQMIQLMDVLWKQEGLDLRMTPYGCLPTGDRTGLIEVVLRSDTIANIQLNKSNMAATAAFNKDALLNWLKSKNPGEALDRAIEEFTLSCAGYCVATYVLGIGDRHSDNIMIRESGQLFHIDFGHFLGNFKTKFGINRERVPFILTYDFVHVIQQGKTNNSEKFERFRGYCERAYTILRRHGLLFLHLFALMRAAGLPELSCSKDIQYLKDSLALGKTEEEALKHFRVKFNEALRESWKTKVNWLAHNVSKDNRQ
Assay: biochemical
MEASUREMENT LABEL: Ki (nM)

COc1ccc(Nc2ncncc2-c2nc(C)nc(N)n2)cn1; 62

[I] COc1ccc(Nc2ncc(CN3CC[C@@H](CO)C3)cc2-c2nc(C)nc(N)n2)cn1
[II] COc1ccc(Nc2ncc(-c3ccc(C)nc3)cc2-c2nc(C)nc(N)n2)cn1
[III] COc1ccc(Nc2ncc(CC3CCN(S(C)(=O)=O)CC3)cc2-c2nc(C)nc(N)n2)cn1
[IV] Cc1nc(-c2cccnc2Nc2cccc3n[nH]cc23)c2c[nH]nc2n1
[in] Please put the entries in order of rising Ki. Give me the labels in the order the question wants.
[out] III, II, I, IV
(III: 4 nM, II: 7 nM, I: 51 nM, IV: 5000 nM)

---

assay: in vitro; conditions: rat, liver microsomes
MEASUREMENT LABEL: microsomal CLint (µL/min/mg)

Before answering, review these 3 worked examples.
COc1ccc(Nc2ncc(C3=CCOCC3)cc2-c2nc(C)nc(N)n2)cn1; 83
Cc1nc(-c2cccnc2Nc2cccc3[nH]ncc23)c2nc[nH]c2n1; 44
COc1ccc(Nc2ncc(Br)cc2-c2nc(C)nc(N)n2)cn1; 111

[a] COc1ccc(Nc2ncc(CN3CCN(C)CC3)cc2-c2nc(C)nc(N)n2)cn1
[b] Cc1cc(-c2cccnc2Oc2cccc3[nH]ccc23)nc(N)n1
[c] COCCNCc1cnc(Nc2ccc(OC)nc2)c(-c2nc(C)nc(N)n2)c1
[in] List items by microsomal CLint in falling order. Give me the labels in the order the question wants.
[out] b, a, c

[P] COc1ccc(Nc2ncc(CN3CCN(S(=O)(=O)N(C)C)CC3)cc2-c2nc(C)nc(N)n2)cn1
[Q] COc1ccc(Nc2ncc(CN3CCC3)cc2-c2nc(C)nc(N)n2)cn1
[R] COc1ccc(Nc2ncc(C)cc2-c2nc(C)nc(N)n2)cn1
[in] Please put the entries in order of rising microsomal CLint. Give me the labels in the order the question wants.
[out] Q, P, R

---

biological target: Phosphatidylinositol 4,5-bisphosphate 3-kinase catalytic subunit delta isoform (Homo sapiens, UniProt O00329); experiment: biochemical
MEASUREMENT LABEL: Ki (nM)

COc1ccc(Nc2ncc(CN3CCC(S(C)(=O)=O)CC3)cc2-c2nc(C)nc(N)n2)cn1; 3

[A] COc1cnc(Nc2ccc(OC)nc2)c(-c2nc(C)nc(N)n2)c1
[B] COc1ccc(Nc2ccccc2-c2nc(C)nc(N)n2)cn1
[C] COc1ccc(Nc2nccnc2-c2cc(N)nc(C)n2)cn1
[in] List items by Ki in falling order. Give me the labels in the order the question wants.
[out] B, C, A

[a] COc1ccc(Nc2cnccc2-c2nc(C)nc(N)n2)cn1
[b] Cc1nc(N)nc(-c2cccnc2Nc2cccc(O)c2)n1
[c] Cc1nc(N)cc(-c2cccnc2Nc2cccc(O)c2)n1
[in] List items by Ki in falling order. Give me the labels in the order the question wants.
[out] a, c, b
(a: 240 nM, c: 56 nM, b: 9 nM)

[1] Cc1nc(NCC#N)nc(-n2c(Nc3cccc(O)c3)nc3ccccc32)n1
[2] Cc1nc(N)c(F)c(-c2cccnc2Nc2cccc3[nH]ncc23)n1
[3] COc1ccc(Nc2ncc(Br)cc2-c2nc(C)nc(N)n2)cn1
[in] Please put the entries in order of rising Ki. Give me the labels in the order the question wants.
[out] 1, 3, 2
(1: 11 nM, 3: 92 nM, 2: 810 nM)

[I] COc1ccc(Nc2cccnc2-c2nc(C)nc(N)n2)cn1
[II] COc1ccc(Nc2ncc(CO)cc2-c2nc(C)nc(N)n2)cn1
[in] Between I and II , whose recorded Ki is greater? Identify your selection by its label.
[out] I

---

Quick list: IC50 per entry.
biological target: Serine/threonine-protein kinase mTOR (Homo sapiens)

Before answering, review these 2 worked examples.
c1cnc(Nc2cccc3n[nH]cc23)c(-c2ncnc3nc[nH]c23)c1; > 10 µM
COc1ccc(N(C)c2ncccc2-c2nc(C)nc(N)n2)cn1; > 10 µM

[in] Could you share what IC50 was measured for COc1ccc(Nc2ncc(CN3CCS(=O)(=O)CC3)cc2-c2nc(C)nc(N)n2)cn1 , tested on Serine/threonine-protein kinase mTOR (Homo sapiens)?
[out] > 10 µM

---

target: Phosphatidylinositol 4,5-bisphosphate 3-kinase catalytic subunit beta isoform (Homo sapiens); assay: biochemical
pKi: −log10 of the molar value.
MEASUREMENT LABEL: pKi

Cc1nc(-c2cccnc2Nc2cccc3[nH]ccc23)c2[nH]cnc2n1; 6.89

[A] COCc1cnc(Nc2ccc(OC)nc2)c(-c2nc(C)nc(N)n2)c1
[B] COc1ccc(Nc2ncc(Cc3ccccc3)cc2-c2nc(C)nc(N)n2)cn1
[C] Cc1ncnc(-n2c(Nc3cccc(O)c3)nc3ccccc32)n1
[in] List items by pKi in falling order. Give me the labels in the order the question wants.
[out] C, A, B

---

molecular target: Phosphatidylinositol 4,5-bisphosphate 3-kinase catalytic subunit alpha isoform (Homo sapiens); assay: biochemical
Sequence (P42336 whole entry, canonical isoform): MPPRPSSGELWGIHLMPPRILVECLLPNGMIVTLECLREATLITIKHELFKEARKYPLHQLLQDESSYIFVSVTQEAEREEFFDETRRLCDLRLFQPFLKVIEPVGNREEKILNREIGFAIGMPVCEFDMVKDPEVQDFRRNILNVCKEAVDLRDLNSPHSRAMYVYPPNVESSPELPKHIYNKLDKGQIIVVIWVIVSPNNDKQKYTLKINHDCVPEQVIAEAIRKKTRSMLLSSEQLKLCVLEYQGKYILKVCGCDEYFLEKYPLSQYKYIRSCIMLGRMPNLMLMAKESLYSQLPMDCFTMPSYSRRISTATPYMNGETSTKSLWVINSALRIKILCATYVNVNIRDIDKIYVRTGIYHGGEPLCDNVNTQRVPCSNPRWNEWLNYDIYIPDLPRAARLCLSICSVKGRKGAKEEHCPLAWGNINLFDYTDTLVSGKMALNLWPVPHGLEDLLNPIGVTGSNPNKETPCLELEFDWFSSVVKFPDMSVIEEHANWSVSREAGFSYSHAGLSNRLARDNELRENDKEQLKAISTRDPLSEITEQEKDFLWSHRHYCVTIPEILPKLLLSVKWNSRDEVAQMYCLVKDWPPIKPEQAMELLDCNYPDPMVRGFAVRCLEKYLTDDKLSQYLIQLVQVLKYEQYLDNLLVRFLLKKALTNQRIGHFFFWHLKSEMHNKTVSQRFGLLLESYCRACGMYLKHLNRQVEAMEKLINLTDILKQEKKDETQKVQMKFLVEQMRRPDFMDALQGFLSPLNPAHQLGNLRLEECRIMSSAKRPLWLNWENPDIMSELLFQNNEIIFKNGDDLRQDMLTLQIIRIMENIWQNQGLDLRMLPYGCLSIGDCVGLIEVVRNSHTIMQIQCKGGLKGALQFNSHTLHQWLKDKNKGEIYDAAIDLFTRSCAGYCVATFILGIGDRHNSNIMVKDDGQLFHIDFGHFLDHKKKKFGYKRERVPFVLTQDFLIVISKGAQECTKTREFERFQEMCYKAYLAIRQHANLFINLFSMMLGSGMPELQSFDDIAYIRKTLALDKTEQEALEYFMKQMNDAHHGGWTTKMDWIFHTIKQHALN
MEASUREMENT LABEL: Ki (nM)

COc1ccc(Nc2nccnc2-c2cc(N)nc(C)n2)cn1; 120

[1] COc1ccc(Nc2ncncc2-c2nc(C)nc(N)n2)cn1
[2] COc1ccc(Nc2cccnc2-c2nc(C)nc(N)n2)cn1
[3] COc1ccc(Nc2nccnc2-c2nc(C)nc(N)n2)cn1
[in] Please put the entries in order of rising Ki. Give me the labels in the order the question wants.
[out] 1, 3, 2
(1: 120 nM, 3: 520 nM, 2: 1300 nM)

---

biological target: Phosphatidylinositol 4,5-bisphosphate 3-kinase catalytic subunit beta isoform (Homo sapiens, UniProt P42338); experiment: biochemical
Sequence (P42338 whole entry, canonical isoform): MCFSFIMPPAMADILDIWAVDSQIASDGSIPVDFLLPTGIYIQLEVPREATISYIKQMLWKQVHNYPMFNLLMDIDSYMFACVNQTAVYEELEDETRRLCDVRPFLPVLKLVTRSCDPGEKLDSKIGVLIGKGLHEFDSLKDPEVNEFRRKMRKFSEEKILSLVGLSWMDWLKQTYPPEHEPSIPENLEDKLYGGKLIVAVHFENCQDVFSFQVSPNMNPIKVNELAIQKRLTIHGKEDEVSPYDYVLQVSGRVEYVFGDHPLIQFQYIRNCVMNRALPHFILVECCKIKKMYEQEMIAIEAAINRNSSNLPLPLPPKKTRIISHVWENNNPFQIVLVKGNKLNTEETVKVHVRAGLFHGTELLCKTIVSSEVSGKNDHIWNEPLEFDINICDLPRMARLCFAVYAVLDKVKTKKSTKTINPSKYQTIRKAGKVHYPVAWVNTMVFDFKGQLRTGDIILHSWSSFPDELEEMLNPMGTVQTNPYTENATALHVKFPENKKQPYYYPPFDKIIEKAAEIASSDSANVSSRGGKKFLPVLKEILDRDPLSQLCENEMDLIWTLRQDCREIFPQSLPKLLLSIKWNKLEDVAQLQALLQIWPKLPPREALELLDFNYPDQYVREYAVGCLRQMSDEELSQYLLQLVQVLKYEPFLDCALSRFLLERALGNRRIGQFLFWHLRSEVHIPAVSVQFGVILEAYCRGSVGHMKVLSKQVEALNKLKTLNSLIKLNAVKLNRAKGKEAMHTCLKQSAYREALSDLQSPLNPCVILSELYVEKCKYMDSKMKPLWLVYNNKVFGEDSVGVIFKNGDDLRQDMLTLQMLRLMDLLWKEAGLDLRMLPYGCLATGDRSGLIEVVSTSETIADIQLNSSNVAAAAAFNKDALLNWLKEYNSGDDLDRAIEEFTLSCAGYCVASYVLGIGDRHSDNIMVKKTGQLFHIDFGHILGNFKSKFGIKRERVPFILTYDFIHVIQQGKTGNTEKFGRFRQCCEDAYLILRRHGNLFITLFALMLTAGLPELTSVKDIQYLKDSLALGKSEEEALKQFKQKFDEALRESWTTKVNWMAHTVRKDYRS
MEASUREMENT LABEL: Ki (µM)

COc1ccc(Nc2ncc(CN3CCCN(S(C)(=O)=O)CC3)cc2-c2nc(C)nc(N)n2)cn1; 0.061
Cc1nc(N)cc(-c2cccnc2Nc2cccc3[nH]ncc23)n1; 0.11
COc1ccc(Nc2ncc(Br)cc2-c2nc(C)nc(N)n2)cn1; 0.075
COc1ccc(Nc2ncc(CN3CCCC3)cc2-c2nc(C)nc(N)n2)cn1; 0.065
COc1ccc(Nc2ncncc2-c2nc(C)nc(N)n2)cn1; 0.081

The measured values listed here are drawn from ChEMBL document CHEMBL2163268.
